target: cruzain (Trypanosoma cruzi, UniProt P25779); assay: biochemical; settings: 10’ (pre-incubation); sheet Screening results;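 also: at 5 µM compound concentration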
Sequence (P25779 123-337 limits assumed): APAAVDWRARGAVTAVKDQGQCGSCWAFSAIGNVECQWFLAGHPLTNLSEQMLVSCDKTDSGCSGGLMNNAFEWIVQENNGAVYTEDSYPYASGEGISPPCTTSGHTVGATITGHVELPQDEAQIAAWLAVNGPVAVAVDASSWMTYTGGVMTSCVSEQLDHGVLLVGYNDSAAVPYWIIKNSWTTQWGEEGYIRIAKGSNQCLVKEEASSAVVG

| compound | Cruzain Inhibition 10’, % |
| --- | --- |
| Cc1nnc(NCc2cccc(Cl)c2)c2ccccc12 | 3.2 |
| Cc1ccccc1CN1CCC(O)(c2ccc(Cl)c(C(F)(F)F)c2)CC1 | 3 |
| CCC(=O)Nc1ccccc1C(=O)Nc1ccccn1 | 14 |
| CCOc1ccc2cc(-c3nn(C(C)(C)C)c(N)c3C(N)=O)cnc2c1 | 4 |
| CNC(=O)c1nn(C)c2c1C(C)(C)Cc1cnc(Nc3ccc(N4CCN(C)CC4)cc3)nc1-2 | -6 |
| CN1CCN(c2cc(-c3ccc(F)cc3)nc(-c3ccncc3)n2)CC1 | 14 |
| N#Cc1nc(-c2ccccc2)oc1S(=O)(=O)c1ccc(Cl)cc1 | -27 |
| Cc1cc(C)n2nc(C(=O)Nc3cc(C(F)(F)F)ccc3N3CCOCC3)nc2n1 | 2.6 |
| Brc1cncc(-c2cc(NCCCn3ccnc3)nc(-c3ccccc3)n2)c1 | 13 |
| Cc1ccc2nc(Cl)c(CNCc3cccs3)cc2c1 | 6.5 |
| CC[C@H](CO)NCCN[C@H](CC)CO | 0.4 |
| CC(C)C(C(=O)Nc1ccc(S(=O)(=O)N(C)C)cc1)c1ccc(Cl)cc1 (stereo not shown) | 2 |
| Cc1cc(C2=NOC(c3cc(Cl)c(F)c(Cl)c3)(C(F)(F)F)C2)ccc1C(=O)NCc1ccc2c(c1)C(C)(C)OB2O (stereo not shown) | 17 |
| O=C(Nc1nnc(-c2ccc(Cl)cc2)o1)c1cccc(C(F)(F)F)c1 | -10 |
| CC(C)n1ncc2c(C(=O)NCC(c3cccs3)N3CCOCC3)cc(-c3ccccc3)nc21 (stereo not shown) | 6 |
| CCc1nn(C)c(C(=O)NCc2ccc(Oc3ccc(C)cc3)cc2)c1Cl | 7.4 |
| CS(=O)(=O)c1ccccc1C(=O)N(Cc1ccccc1)c1ccccc1 | 1.2 |
| N=C(N)c1ccc(OCCCCCOc2ccc(C(=N)N)cc2)cc1 | 13 |
| O=C1N(Cc2cc3ccccc3s2)CC2CN(Cc3ccccc3)CCN12 (stereo not shown) | 6.4 |

* * *

target: TbrCatL (Trypanosoma brucei rhodesiense, UniProt Q95PM0); construct: Conor Caffrey (University of California San Diego); assay: TbrCatL enzymatic inhibition assay (cleavage of fluorogenic substrate Z-FR-AMC); assay type: biochemical; conditions: 10’ (pre-incubation); sheet Screening results;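 also: at 5 µM compound concentration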
Sequence (Q95PM0 entry or part of it): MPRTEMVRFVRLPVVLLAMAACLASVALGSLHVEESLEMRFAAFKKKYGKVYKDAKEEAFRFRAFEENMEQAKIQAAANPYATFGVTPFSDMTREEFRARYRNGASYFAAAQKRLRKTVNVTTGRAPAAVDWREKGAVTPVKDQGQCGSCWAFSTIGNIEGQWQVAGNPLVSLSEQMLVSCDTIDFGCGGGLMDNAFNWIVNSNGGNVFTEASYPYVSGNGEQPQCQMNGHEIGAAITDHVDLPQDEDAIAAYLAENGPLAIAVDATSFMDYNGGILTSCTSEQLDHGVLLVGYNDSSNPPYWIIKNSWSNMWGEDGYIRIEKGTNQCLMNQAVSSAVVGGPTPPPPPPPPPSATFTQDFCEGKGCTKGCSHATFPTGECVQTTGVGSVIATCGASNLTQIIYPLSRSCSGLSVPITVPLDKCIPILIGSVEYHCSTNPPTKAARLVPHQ
# TbrCatL Inhibition 10’ annotations
reported-metric: TbrCatL Inhibition 10’ (%)

| compound | result-units | endpoint-result |
| --- | --- | --- |
| O=C(NC1=NCCS1)c1sc2cc(F)ccc2c1Cl [MMV676584] | % | -9 |
| O=C(Nc1nnc(-c2ccc(Cl)s2)o1)c1ccc(Cl)s1 [MMV676501] | % | -11 |
| COc1cccc2c(C)nc(N=C(N)N)nc12 [MMV000907] | % | 23 |
| CCC(=O)Nc1ccccc1C(=O)Nc1ccccn1 [MMV202553] | % | 7 |
| CCN(CC)S(=O)(=O)c1ccc(Cl)c(C(=O)Nc2ccc3nc(C)sc3c2)c1 [MMV019721] | % | -2.6 |
| O=C(Nc1nnc(-c2ccc(Cl)cc2)o1)c1cccc(C(F)(F)F)c1 [MMV102872] | % | -16 |
| O=C(c1ccco1)N(CCCn1ccnc1)c1nc2c(Cl)cccc2s1 [MMV688936] | % | 0.6 |
| COc1cccc(-n2nnnc2S(=O)(=O)Cc2ccccc2)c1 [MMV676388] | % | 15 |
| CS(=O)(=O)c1cccc(-c2cnc3[nH]cc(-c4ccc(CCC(=O)O)cc4)c3c2)c1 [MMV026020] | % | 20 |
| Clc1ccc(CCNc2cc(-c3ccccc3)nc3ncnn23)cc1 [MMV688889] | % | 13 |

* * *

target: TbrCatL (Trypanosoma brucei rhodesiense, UniProt Q95PM0); construct: Conor Caffrey (University of California San Diego); assay: TbrCatL enzymatic inhibition assay (cleavage of fluorogenic substrate Z-FR-AMC); format: biochemical; settings: 10’ (pre-incubation time); sheet "Screening results";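 also: at 5 µM compound concentration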
# TbrCatL 10’ Inhibition annotations
reported-metric: TbrCatL 10’ Inhibition (%)

| compound | result-units | endpoint-result |
| --- | --- | --- |
| OCCc1ccc(Nc2nccc(-c3nnc4ccccn34)n2)cc1 | % | 13 |
| CC(Oc1ccccc1)C(=O)Nc1nc(-c2ccccn2)cs1 (stereo not shown) | % | -0.8 |
| c1cc(C2=NCCN2)cc(-c2cc(-c3ccc(C4=NCCN4)cc3)no2)c1 | % | -3.5 |
| O=C(N[C@H](Cc1ccccc1)C(=O)Nc1ccccc1N1CCOCC1)c1cccs1 | % | 2.3 |
| COc1ccc(N(CCc2cccc(C)n2)C(C)=O)cc1 | % | 19 |
| O=C(c1ccc(NCCO)cc1)C1C[C@H]1c1ccc(Cl)cc1 (stereo partly shown) | % | 9 |
| CC(C)(C)OC(=O)N1CCC(Cn2nc(-c3cnc4ccccc4c3)c3c(N)ncnc32)CC1 | % | -15 |
| Cc1ccc2[nH]c(C3CCCNC3)c(-c3ccncc3)c2c1 (stereo not shown) | % | 12 |
| CC(c1cc(Cl)cc(Cl)c1)N(C)c1ncc2c(N)nc(N)nc2n1 (stereo not shown) | % | 3.6 |
| O=C(OCc1ccccc1)N1CCC(c2cc(-c3ccncc3)c(-c3ccc(F)cc3)[nH]2)CC1 | % | -13 |
| CCc1nc2ccc(Cl)cn2c1C(=O)NCc1ccc(N2CCC(c3ccc(OC(F)(F)F)cc3)CC2)cc1 | % | -3.6 |
| CN(C)CCNC(=O)N1CCCN(c2ncnc3cc(-c4ccccc4)sc23)CC1 | % | -1.4 |
| CCCCc1ccc(NC(=O)Nc2ccc(O[C@H]3CCCC[C@@H]3N(C)c3ccccc3)c(F)c2)cc1 | % | -15 |
| O=C(C1CCN(c2cc(-n3cccc3)ncn2)CC1)N1CCc2ccccc2C1 | % | 15 |
| Nc1nccc2ccc(-c3ccc4nccn4c3)cc12 | % | 7 |
| c1cncc(NCc2ccc(-c3cc4ccncc4cc3OC3CCNCC3)s2)c1 | % | 17 |
| CCOc1ccc(OCC(=O)Nc2cc(C)cc(C)c2)cc1 | % | 4 |
| Clc1cccc(CO[C@H]2CCc3ccccc3[C@@H]2n2ccnn2)c1 | % | -6 |
| COc1cc(-c2cc(-c3ccc(S(C)(=O)=O)cc3)cnc2N)ccc1O | % | 0.9 |

* * *

# TbrCatL Inhibition 10’ annotations
target: TbrCatL (Trypanosoma brucei rhodesiense, UniProt Q95PM0); construct: Conor Caffrey (University of California San Diego); assay: TbrCatL enzymatic inhibition assay (cleavage of fluorogenic substrate Z-FR-AMC); assay type: biochemical; settings: 10’ (pre-incubation); sheet Screening results;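 also: at 5 µM compound concentration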

| compound | TbrCatL Inhibition 10’ [%] |
| --- | --- |
| CC1COC(Cn2cncn2)(c2ccc(Oc3ccc(Cl)cc3)cc2Cl)O1 (centres unmarked) [MMV688943] | 4 |
| CC(=O)N1CCc2cc3nc(C)cc(C)c3cc21 [MMV054312] | 19 |
| Cc1ccc(Oc2ccc(NC(=O)CNc3ccccc3N3CCCC3=O)cc2)cc1 [MMV020512] | -0.2 |
| CC(C)c1ncc(-c2ccncc2)c(C2CCC(CNC(=O)c3cccnc3)CC2)n1 (centres unmarked) [MMV676442] | -6 |
| c1ccc(C[C@@H]2CN(c3nccc(Oc4ccc(-n5ccnc5)cc4)n3)CCN2)cc1 [MMV687749] | 5.6 |

* * *

# TbrCatL Inhibition 0’ annotations
target: TbrCatL (Trypanosoma brucei rhodesiense, UniProt Q95PM0); construct: Conor Caffrey (University of California San Diego); experiment: TbrCatL enzymatic inhibition assay (cleavage of fluorogenic substrate Z-FR-AMC); type: biochemical; conditions: 0’ (no pre-incubation); sheet Screening results;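 also: at 5 µM compound concentration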
reported-metric: TbrCatL Inhibition 0’ (%)

| molecule | reported-metric | endpoint-result |
| --- | --- | --- |
| CCCCS(=O)(=O)Nc1ccc2cnn(C)c2c1 [MMV687145] | TbrCatL Inhibition 0’ | -3 |
| CC1CCCCN1C(=O)NCCc1coc(-c2ccc(F)cc2)n1 (stereo not shown) [MMV688797] | TbrCatL Inhibition 0’ | 16 |
| O=C(Nc1nc(-c2ccccn2)cs1)C1CC1c1ccccc1F (stereo not shown) [MMV1028806] | TbrCatL Inhibition 0’ | 17 |
| CNC(=O)c1cc(S(=O)(=O)N2CCN(c3ccccn3)CC2)cs1 [MMV020136] | TbrCatL Inhibition 0’ | -6.4 |
| COc1cccc2c(C)nc(N=C(N)N)nc12 [MMV000907] | TbrCatL Inhibition 0’ | 32 |
| N#Cc1ccc(-c2ccc(OCC(N)=O)cc2)cc1 [MMV053220] | TbrCatL Inhibition 0’ | -5.7 |
| COc1ccc(C2=NN(C3CCCCCC3)C(=O)C2(C)C)cc1OCc1ccccn1 [MMV688360] | TbrCatL Inhibition 0’ | 13 |
| COc1ccc(C2=NN(C3CCCCCC3)C(=O)[C@H]3CC=CC[C@@H]23)cc1OCCCCOc1ccc(-c2nn[nH]n2)cc1 [MMV690027] | TbrCatL Inhibition 0’ | 6.4 |
| Brc1cncc(-c2cc(NCCCn3ccnc3)nc(-c3ccccc3)n2)c1 [MMV661713] | TbrCatL Inhibition 0’ | 20 |
| COc1ccc(C2=NCCN2)cc1-c1cn(-c2cccc(C3=NCCN3)c2)nn1 [MMV688547] | TbrCatL Inhibition 0’ | 6 |
| Cc1ccc(S(=O)(=O)Nc2ccc(CN3CCN(C(=O)c4cccc(C#N)c4)CC3)cc2)cc1 [MMV689028] | TbrCatL Inhibition 0’ | -0.6 |
| Cc1ncc(-c2ccnc(Nc3ccc(S(C)(=O)=O)cc3)n2)n1C(C)C [MMV676604] | TbrCatL Inhibition 0’ | 3 |
| O=C(Cn1ccnc1[N+](=O)[O-])NCc1ccccc1 [MMV688773] | TbrCatL Inhibition 0’ | 4.3 |
| Cc1ccc(S(=O)(=O)N2CCN(C(=O)c3cc(-c4ccccc4)n[nH]3)CC2)cc1 [MMV019742] | TbrCatL Inhibition 0’ | 3.5 |
| COCC(C)NC(=O)CSc1ncnc2sc(-c3ccccc3)cc12 (stereo not shown) [MMV676536] | TbrCatL Inhibition 0’ | 13 |
| Brc1c(-c2ccc3c(c2)OCO3)nc2ncccn12 [MMV676377] | TbrCatL Inhibition 0’ | 5 |
| CNC(=O)c1nn(C)c2c1C(C)(C)Cc1cnc(Nc3ccc(N4CCN(C)CC4)cc3)nc1-2 [MMV676602] | TbrCatL Inhibition 0’ | 4 |
| O=C(NCc1ccco1)N1CCN(Cc2ccc(Cl)s2)CC1 [MMV688555] | TbrCatL Inhibition 0’ | 6 |
| CC(=O)NC[C@H]1CN(c2ccc(N3CCSCC3)c(F)c2)C(=O)O1 [MMV688756] | TbrCatL Inhibition 0’ | 10 |
